Target: FLT-3 (Homo sapiens)
Sequence (P36888 27-993, species assumed): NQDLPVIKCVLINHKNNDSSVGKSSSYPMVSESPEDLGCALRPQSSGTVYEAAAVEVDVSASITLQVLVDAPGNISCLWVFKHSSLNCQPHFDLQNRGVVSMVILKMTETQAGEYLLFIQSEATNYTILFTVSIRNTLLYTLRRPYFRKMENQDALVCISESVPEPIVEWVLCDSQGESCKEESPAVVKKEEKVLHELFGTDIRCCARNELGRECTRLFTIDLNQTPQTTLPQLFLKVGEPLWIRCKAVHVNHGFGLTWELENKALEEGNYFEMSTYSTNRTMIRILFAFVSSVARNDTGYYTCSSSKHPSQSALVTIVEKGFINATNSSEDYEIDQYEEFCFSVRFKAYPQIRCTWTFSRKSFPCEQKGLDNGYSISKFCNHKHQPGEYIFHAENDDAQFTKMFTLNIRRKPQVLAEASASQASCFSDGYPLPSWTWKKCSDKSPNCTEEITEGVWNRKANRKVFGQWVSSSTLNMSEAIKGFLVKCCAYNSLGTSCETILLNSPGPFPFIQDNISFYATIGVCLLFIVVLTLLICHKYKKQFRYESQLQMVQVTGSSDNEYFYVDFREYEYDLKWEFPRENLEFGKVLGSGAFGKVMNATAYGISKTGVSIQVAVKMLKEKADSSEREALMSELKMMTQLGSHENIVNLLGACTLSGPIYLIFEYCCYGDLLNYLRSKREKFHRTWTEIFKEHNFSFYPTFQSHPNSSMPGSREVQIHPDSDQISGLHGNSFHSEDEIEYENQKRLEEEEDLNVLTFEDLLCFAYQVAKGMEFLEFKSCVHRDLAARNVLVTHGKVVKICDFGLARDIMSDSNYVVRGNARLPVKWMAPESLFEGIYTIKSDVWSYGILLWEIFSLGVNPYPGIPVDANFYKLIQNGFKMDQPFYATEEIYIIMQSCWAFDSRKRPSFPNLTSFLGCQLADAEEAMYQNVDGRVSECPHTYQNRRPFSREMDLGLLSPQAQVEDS
Experiment: FLT-3 inhibition assay, radiometric filter-binding
Type: biochemical
Details: read-out: FLT-3 Ki value
pKi: −log10 of the molar value.
Items are presented alongside their recorded pKi.

// solved cases for pKi follow
Compound	Study Target	pKi
Cc1cc(Nc2cc(N3CC(N4CCOCC4)C3)nc(Sc3ccc(NC(=O)C4(C(F)(F)F)CC4)cc3)n2)[nH]n1 [Compound 191]	FLT-3 (Homo sapiens)	6.00 to 6.82
Cc1cc(Nc2cc(N3CCC3)nc(Sc3ccc(NC(=O)C4CCCCC4)cc3)n2)n[nH]1 [Compound 30]	FLT-3 (Homo sapiens)	6.00 to 6.82
Cc1cc(Nc2cc(N3CC(O)(C4CC4)C3)nc(Sc3ccc(NC(=O)C4CC4)c(F)c3)n2)[nH]n1 [Compound 109]	FLT-3 (Homo sapiens)	≥ 7.30

Prompt: Which pKi is listed for CCC(=O)Nc1ccc(Sc2nc(Nc3cc(C)n[nH]3)cc(N3CC4(C3)OCC4(C)C)n2)cc1 [Compound 92] ?
Completion: ≥ 7.30

Prompt: Entry under review: Cc1cc(Nc2cc(N3CCC3)nc(Sc3ccc(NC(=O)C4CC4(F)F)cc3)n2)[nH]n1 (stereo not shown) [Compound 112] . Reported pKi?
Completion: ≥ 7.30

Prompt: Reported pKi, compound Cc1cc(Nc2cc(N3CCC3)nc(Sc3ccc(NC(=O)c4cc(C)nc(Cl)c4)cc3)n2)[nH]n1 [Compound 149] : ____
Completion: 6.00 to 6.82

Prompt: Looking for the measured pKi of Cc1cc(Nc2cc(N3CCC3)nc(Sc3ccc(NC(=O)C(F)(F)F)cc3)n2)[nH]n1 [Compound 158] , can you help?
Completion: 6.82 to 7.30

Prompt: I am curious: what pKi value has been reported for CCC(=O)Nc1ccc(Sc2nc(Nc3cc(C)n[nH]3)cc(N3CC(C)(OC(C)(C)C)C3)n2)cc1 [Compound 96] ?
Completion: 6.82 to 7.30

Prompt: Please look up its pKi: Cc1cc(Nc2cc(N3CCC3)nc(Sc3ccc(NC(=O)c4ccccc4N(C)C)cc3)n2)[nH]n1 [Compound 124]
Completion: 6.00 to 6.82

---

Biological target: Aurora-2 (Aurora A) (Homo sapiens, UniProt O14965)
Sequence (O14965 whole entry): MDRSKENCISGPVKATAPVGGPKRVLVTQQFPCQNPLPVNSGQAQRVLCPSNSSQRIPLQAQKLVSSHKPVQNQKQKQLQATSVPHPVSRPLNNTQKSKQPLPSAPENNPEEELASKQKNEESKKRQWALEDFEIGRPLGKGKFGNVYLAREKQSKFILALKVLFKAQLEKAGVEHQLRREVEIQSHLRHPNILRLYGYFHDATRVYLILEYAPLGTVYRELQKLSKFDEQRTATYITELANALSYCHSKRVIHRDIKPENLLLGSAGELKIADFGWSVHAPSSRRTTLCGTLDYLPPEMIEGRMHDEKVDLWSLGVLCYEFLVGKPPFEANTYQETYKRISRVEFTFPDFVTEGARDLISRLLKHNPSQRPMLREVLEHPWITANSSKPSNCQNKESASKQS
Experiment: Aurora-2 (Aurora A) inhibition assay, coupled enzyme
Assay type: biochemical
Conditions: read-out: Aurora A kinase Ki value
The entries below come with measured Ki values attached.

These recorded examples may help you get a feel for the data.
Molecule Smiles	Study Target	Measured
CCC(=O)Nc1ccc(Sc2nc(Nc3cc(C)n[nH]3)cc(N3CC(C)(N4CCCC4)C3)n2)cc1	Aurora-2 (Aurora A) (Homo sapiens, UniProt O14965)	≤ 1 nM
CCC(=O)Nc1ccc(Sc2nc(Nc3cc(C)n[nH]3)cc(N3CC(C)(NC(C)(C)C)C3)n2)cc1	Aurora-2 (Aurora A) (Homo sapiens, UniProt O14965)	1 to 5 nM
Cc1cc(Nc2cc(N3CCC3)nc(Sc3ccc(NC(=O)c4ccc(F)cc4F)cc3)n2)n[nH]1	Aurora-2 (Aurora A) (Homo sapiens, UniProt O14965)	1 to 5 nM

Field: next molecule
Prompt: # query: Ki of entry Cc1cc(Nc2cc(N3CC(F)(C4CC4)C3)nc(Sc3ccc(N)cc3)n2)[nH]n1
Completion: 5 to 200 nM

---

Molecular target: JAK3 (Homo sapiens, UniProt P52333)
Sequence (P52333 whole entry, species assumed): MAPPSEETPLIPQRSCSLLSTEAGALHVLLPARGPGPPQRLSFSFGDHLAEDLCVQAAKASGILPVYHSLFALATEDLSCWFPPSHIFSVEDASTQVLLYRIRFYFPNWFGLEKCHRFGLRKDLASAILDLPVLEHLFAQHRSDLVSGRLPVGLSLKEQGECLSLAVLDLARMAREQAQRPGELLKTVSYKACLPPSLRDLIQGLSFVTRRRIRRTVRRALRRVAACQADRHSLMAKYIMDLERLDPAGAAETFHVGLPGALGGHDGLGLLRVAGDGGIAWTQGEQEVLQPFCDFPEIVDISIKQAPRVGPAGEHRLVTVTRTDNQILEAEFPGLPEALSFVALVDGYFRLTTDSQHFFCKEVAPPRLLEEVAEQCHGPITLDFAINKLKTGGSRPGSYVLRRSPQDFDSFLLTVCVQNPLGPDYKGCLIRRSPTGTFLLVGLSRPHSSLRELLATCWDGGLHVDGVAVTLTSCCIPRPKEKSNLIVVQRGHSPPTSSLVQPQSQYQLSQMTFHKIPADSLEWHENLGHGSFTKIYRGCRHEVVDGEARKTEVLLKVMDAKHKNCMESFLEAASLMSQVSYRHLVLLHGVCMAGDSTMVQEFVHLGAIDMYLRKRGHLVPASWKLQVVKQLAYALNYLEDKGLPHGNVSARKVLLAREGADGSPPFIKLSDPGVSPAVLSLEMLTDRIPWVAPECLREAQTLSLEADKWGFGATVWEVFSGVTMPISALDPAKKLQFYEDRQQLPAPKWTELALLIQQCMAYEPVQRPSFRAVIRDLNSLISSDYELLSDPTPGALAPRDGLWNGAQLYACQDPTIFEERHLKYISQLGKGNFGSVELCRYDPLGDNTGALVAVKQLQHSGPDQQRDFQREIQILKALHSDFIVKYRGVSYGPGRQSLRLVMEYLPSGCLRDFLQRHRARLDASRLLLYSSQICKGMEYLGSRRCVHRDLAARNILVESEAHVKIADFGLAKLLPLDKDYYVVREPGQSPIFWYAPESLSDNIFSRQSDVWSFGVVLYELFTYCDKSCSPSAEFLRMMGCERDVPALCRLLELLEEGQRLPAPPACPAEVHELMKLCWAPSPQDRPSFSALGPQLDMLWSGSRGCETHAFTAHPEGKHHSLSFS
Experiment: biochemical
Below is a list of entries, each paired with its recorded Ki value.

Examples from the recorded data:
Molecule Smiles	Ki
CCC(=O)Nc1ccc(Sc2nc(Nc3cc(C)n[nH]3)cc(N3CC(C)(OC(C)(C)C)C3)n2)cc1	10 to 500 nM
Cc1cc(Nc2cc(N3CCC3)nc(Sc3ccc(NC(=O)c4cc(C)nc(Cl)c4)cc3)n2)[nH]n1	10 to 500 nM
Cc1ccc2cc(Sc3nc(Nc4cc(C)[nH]n4)cc(N4CC(N5CCCC5)C4)n3)ccc2n1	10 to 500 nM
Cc1cc(Nc2cc(N3CC(N4CCCC4)C3)nc(Sc3ccc4ncccc4c3)n2)n[nH]1	≤ 10 nM
Cc1cc(Nc2cc(N3CCC3)nc(Sc3ccc(NC(=O)Cc4ccccc4)cc3)n2)n[nH]1	500 to 2000 nM

Prompt: Name the recorded Ki for Cc1cc(Nc2cc(N3CC(F)(C4CC4)C3)nc(Sc3ccc4nc(C(F)(F)F)[nH]c4c3)n2)[nH]n1 .
Completion: ≤ 10 nM

Prompt: Dear colleague, I am looking for the recorded Ki of the following compound: Cc1cc(Nc2nc(Sc3ccc(NC(=O)c4ccccc4Cl)cc3)nc(N3CCC3)c2F)[nH]n1
Completion: 500 to 2000 nM
